B1: VTI1B (parent)
chain: NKLLLSIIILLELAILGGLVYYKF

- Variants of: B1
- Assay overview: protein stability index of a GFP-peptide fusion (GPS, HEK-293T) (PSI 1-6); higher = more stable;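 further: lentivirally expressed fusions sorted by FACS into six bins by GFP to DsRed ratio, PSI derived from sequencing read proportions per bin multiplied by bin number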
- Measurement conditions: c terminus: a fixed tail appended
Give protein stability index for every item shown.
One number for each entry.

Known results for variants:
(Q) Tell us which protein stability index value is on record for G18N
(A) 2.96

(Q) Tell us which protein stability index value is on record for V20P
(A) 2.94

(Q) Tell us which protein stability index value is on record for L4I
(A) 2.94

(Q) Tell us which protein stability index value is on record for L16F
(A) 2.62

(Q) Tell us which protein stability index value is on record for F24D
(A) 3.03

(Q) Tell us which protein stability index value is on record for F24C
(A) 2.01

(Q) Tell us which protein stability index value is on record for N1Q
(A) 2.12

(Q) Tell us which protein stability index value is on record for E12Y
(A) 2.01

Next:
(Q) Tell us which protein stability index value is on record for I8V
(A) 2.56

Each recorded value in this set is attributed to the supplement of paper PMC10567573.
